Test system: platelet
protocol: Blood platelet aggregation inhibiting effect (collagen-induced)
Format: cell-based, rabbits
condition_parameters: Oryctolagus cuniculus, Platelet; 10^-4 mole, collagen inducer, rabbit PRP; read-out: Blood platelet agg. inh.: percentage inhibition of platelet aggregation
inhibition at 100 µM values for the compounds below.
The reply should be a number in %, with the unit left off.

# smiles, unit_of_measure, inhibition at 100 µM
measured = [
    ("Cc1cc(C)c(C(=O)c2ccc(O)cc2)c(C)c1", "%", 28.4),
    ("O=C(c1ccc(F)cc1)c1ccc(F)cc1", "%", 26.8),
    ("CCCCOc1ccc(C(=O)c2c(C)cc(C)cc2C)cc1", "%", 27.9),
    ("CCCCc1ccc(C(=O)C(=O)c2ccccc2)cc1", "%", 11.1),
    ("CCCOc1ccc(C(=O)Cc2ccccc2)cc1", "%", 20.1),
]

The recorded inhibition at 100 µM for entry CCc1ccc(C(=O)C(=O)c2ccccc2)cc1 equals 23.3

For record O=C(c1ccccc1)c1ccc(O)cc1 the listed inhibition at 100 µM is 13.7

Sure, the documented inhibition at 100 µM for Cc1cc(C)c(C)c(C(=O)c2ccccc2)c1C is 19.9

Just so you know, measured inhibition at 100 µM for CCOc1ccc(C(=O)c2ccccc2)cc1 came out at 18.3

Form field inhibition at 100 µM, entry CCCCCc1ccc(C(=O)c2ccc(C)cc2)cc1 : 8.6

The compound listed as CCCCCCCc1ccc(C(=O)c2ccc(CCCC)cc2)cc1 shows inhibition at 100 µM equal to 22.4

###

System: platelet
protocol: Blood platelet aggregation inhibiting effect (collagen-induced)
Format: cell-based, rabbits
condition_parameters: Oryctolagus cuniculus, Platelet; 10^-4 mole, collagen inducer, rabbit PRP; read-out: Blood platelet agg. inh.: percentage inhibition of platelet aggregation
reported_endpoint: inhibition at 100 µM (%)
Provide only the numeric value, understood in %.

# smiles, inhibition at 100 µM / %
records = [
    ("CCCCCCCc1ccc(C(=O)c2ccccc2)cc1", 7.8),
]

Given the compound CCc1ccc(C(=O)c2ccccc2)cc1 and test system platelet, the measured inhibition at 100 µM is 20.7

inhibition at 100 µM for platelet with input CCCCOc1ccc(C(=O)c2ccc(CCCC)cc2)cc1 equals 30

For the compound C=Cc1ccc(C(=O)c2ccccc2)cc1 , the measured inhibition at 100 µM on platelet was 20.5

// compound CCCc1ccc(C(=O)c2ccc(CCC)cc2)cc1 , assay platelet, inhibition at 100 µM value: 20.5

Field inhibition at 100 µM (platelet), entry Cc1ccc(C(=O)C(=O)c2ccccc2)cc1 : 15.4

###

System: hind paws of male rats
protocol: Anti-inflammatory effect: acute carragheenin edema method
Assay type: in vivo
condition_parameters: Rattus norvegicus; 100 mg/kg oral, carragheenin edema, male rats (Table 2'); read-out: Anti-inf.: edema inhibition rate
reported_endpoint: inhibition in vivo at 100 mg/kg (%)
// return numeric value only (unit: %, not printed)

# example entries with known answers
# molecule, value_measured
rows = [
    ("CCCCCCCCc1ccc(C(=O)c2ccc(F)cc2)cc1", 38.6),
    ("CCCCCCCCc1ccc(C(=O)c2ccc(Br)cc2)cc1", 15.3),
    ("CCCCCc1ccc(C(=O)c2ccccc2Cl)cc1", 38.3),
]

inhibition in vivo at 100 mg/kg recorded for this molecule, CC(C)(C)c1ccc(C(=O)c2ccccc2F)cc1 , is 38.3

Item: CCCCCCCCc1ccc(C(=O)c2ccccc2Cl)cc1 | inhibition in vivo at 100 mg/kg: 35.1

Form field inhibition in vivo at 100 mg/kg, entry CCCc1ccc(C(=O)c2ccccc2Br)cc1 : 38.9

Item: Cc1ccc(C(=O)c2ccc(Br)cc2)c(C)c1 | inhibition in vivo at 100 mg/kg: 22.6

###

Test system: platelet
protocol: Blood platelet aggregation inhibiting effect (collagen-induced)
Format: cell-based, rabbits
condition_parameters: Oryctolagus cuniculus, Platelet; 10^-4 mole, collagen inducer, rabbit PRP; read-out: Blood platelet agg. inh.: percentage inhibition of platelet aggregation
reported_endpoint: inhibition at 100 µM

Quick note, inhibition at 100 µM for CCc1ccc(C(=O)c2ccc(C)cc2)cc1 [compound 33] landed at 20.5%

Value of measured inhibition at 100 µM for the entry CCCCCc1ccc(C(=O)c2ccc(CCC)cc2)cc1 [compound 99] : 29.5%

Lab book: inhibition at 100 µM of CCCc1ccc(C(=O)c2c(C)cc(C)cc2C)cc1 [compound 97] noted as 26.8%

Query CCCCCCCCCc1ccc(C(=O)c2ccc(CCCC)cc2)cc1 [compound 102] yields inhibition at 100 µM of 30.4%

Documented inhibition at 100 µM of CCCCCOc1ccc(C(=O)Cc2ccccc2)cc1 [compound 59] : 25.6%

###

The reader will find reported inhibition at 100 µM values listed item by item below.
System: platelet
protocol: Blood platelet aggregation inhibiting effect (collagen-induced)
Type: cell-based, rabbits
condition_parameters: Oryctolagus cuniculus, Platelet; 10^-4 mole, collagen inducer, rabbit PRP; read-out: Blood platelet agg. inh.: percentage inhibition of platelet aggregation
The reply should be a number in %, with the unit left off.

# smiles, unit_of_measure, value_measured
rows = [
    ("COc1ccc(C(=O)c2ccccc2)cc1", "%", 20.4),
]

Let us examine a further case.
The compound identified as CCCc1ccc(C(=O)c2ccc(CC)cc2)cc1 registered its inhibition at 100 µM at 11.8

###

System: hind paws of male rats
protocol: Anti-inflammatory effect: acute carragheenin edema method
Assay type: in vivo
condition_parameters: Rattus norvegicus; 100 mg/kg oral, carragheenin edema, male rats (Table 2'); read-out: Anti-inf.: edema inhibition rate
We'd kindly ask you to apply these inhibition in vivo at 100 mg/kg classes: zone 1 (below 20%), zone 2 (20% to below 30%), zone 3 (30% or more)

Check out these entries, answers already filled in.
# compound, class_assignment
measured = [
    ("Cc1cc(C)c(C(=O)c2ccc(Br)cc2)c(C)c1", "zone 2"),
    ("CCCCCc1ccc(C(=O)c2ccccc2I)cc1", "zone 3"),
]

Which of the defined bands does the recorded inhibition in vivo at 100 mg/kg of CCCCc1ccc(C(=O)c2cccc(F)c2)cc1 sit within?
zone 3

Which class holds CCCCOc1ccc(C(=O)c2ccc(Cl)cc2)cc1 ?
zone 1

Band for Cc1ccc(C(=O)c2ccccc2Br)c(C)c1 ?
zone 2

Which class is correct for the following compound? CC(C)Cc1ccc(C(=O)c2ccccc2F)cc1
zone 3

Hi, small favor: classify CCCc1ccc(C(=O)c2cccc(Cl)c2)cc1 by its inhibition in vivo at 100 mg/kg when you get a moment.
zone 1

Which of the defined bands does the recorded inhibition in vivo at 100 mg/kg of CCCCCc1ccc(C(=O)c2cccc(F)c2)cc1 sit within?
zone 2

Where would CCC(C)c1ccc(C(=O)c2ccccc2F)cc1 (stereo not shown) land among the classes by reported inhibition in vivo at 100 mg/kg?
zone 3

Determine which band this compound sits in: CCCCCCCCc1ccc(C(=O)c2cccc(Br)c2)cc1
zone 3

Exercise: read the entry CCCCCc1ccc(C(=O)c2ccc(F)cc2)cc1 and state which class it falls under.
zone 3

Into which bin does this compound go? CCCc1ccc(C(=O)c2ccc(Br)cc2)cc1
zone 1

Pick a category. Item: Cc1ccc(C(=O)c2cccc(F)c2)c(C)c1
zone 2

Please indicate the class for CCCCCCCCc1ccc(C(=O)c2ccccc2I)cc1 based on its inhibition in vivo at 100 mg/kg.
zone 3

###

Let's look at some compounds and their measured inhibition at 100 µM.
Test system: platelet
protocol: Blood platelet aggregation inhibiting effect (collagen-induced)
Type: cell-based, rabbits
condition_parameters: Oryctolagus cuniculus, Platelet; 10^-4 mole, collagen inducer, rabbit PRP; read-out: Blood platelet agg. inh.: percentage inhibition of platelet aggregation
Value expressed in %; do not type the unit.

Known inhibition at 100 µM results, listed for orientation:
# smiles, test_target, inhibition at 100 µM (%)
records = [
    ("CCCc1ccc(C(=O)c2cccc(C)c2)cc1", "platelet", 30.1),
    ("Cc1cc(C)c(C(=O)c2ccccc2F)c(C)c1", "platelet", 16.5),
    ("CCCCCCCCc1ccc(C(=O)c2ccccc2)cc1", "platelet", 3.1),
    ("CCCCc1ccc(C(=O)c2ccc(C)cc2)cc1", "platelet", 11.3),
    ("CCCCOc1ccc(C(=O)Cc2ccc(Cl)cc2)cc1", "platelet", 15.8),
]

Short answer on platelet for CCCCCc1ccc(C(=O)c2ccccc2)cc1 , inhibition at 100 µM: 13.8

Form field, inhibition at 100 µM with platelet, item CCCCOc1ccc(C(=O)c2ccccc2)cc1 : 4.4

# lookup: COc1cc(OC)c(C(=O)c2ccccc2)c(OC)c1 on platelet, inhibition at 100 µM = 16.2

# value of inhibition at 100 µM, platelet, item O=C(c1ccccc1)c1ccccc1 = 25.7

Just for reference, patent US4145444A is where these values come from.
